Provide the recorded viability, T/C for the entries that follow.
system: MDA-MB-231 multicell spheroids, viability; test: Anticancer human tumor MDA-MB-231 cell line growth inhibition [PI3K]; conditions: second compound 0.00316 µM; first compound 0.316 µM; active compounds read low;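 further: spheroids exposed to agents for seven days before reading; percent of vehicle control luminescence with DMSO treated spheroids as 100%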
Expressed in %, but write only the number.

Would you mind telling me what viability, T/C value was observed for CC(Cn1ccc(-c2ccc(C#N)c(Cl)c2)n1)NC(=O)c1cc(C(C)O)[nH]n1 (stereo not drawn) + COc1c(OCCCN2CCOCC2)ccc2c3n(c(=NC(=O)c4cnc(N)nc4)nc12)CCN3 ?
106

Next entry: CC1(C)CCC(Nc2ncc(C(F)(F)F)c(-c3c[nH]c4c(P(C)(C)=O)c(C#N)ccc34)n2)CN1 (stereo not drawn) + COc1c(OCCCN2CCOCC2)ccc2c3n(c(=NC(=O)c4cnc(N)nc4)nc12)CCN3
49.5

What do we get for CC(C)NCC(C(=O)N1CCN(c2ncnc3c2C(C)CC3O)CC1)c1ccc(Cl)cc1 (stereo not drawn) + CC(Nc1ccc2c(c1)OCCn1cc(N3C(=O)OCC3C(F)F)nc1-2)C(N)=O ?
99.3

----------
system: MDA-MB-231 multicell spheroids, viability; test: Anticancer human tumor MDA-MB-231 cell line growth inhibition [PI3K]; conditions: second compound 3.16 µM; first compound 3.16 µM; active compounds read low;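 further: spheroids exposed to agents for seven days before reading; percent of vehicle control luminescence with DMSO treated spheroids as 100%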
MEASURED_QUANTITY: viability, T/C (%)
Form entry: value (%) — number only.

Give its viability, T/C value. Item: CC(Cn1ccc(-c2ccc(C#N)c(Cl)c2)n1)NC(=O)c1cc(C(C)O)[nH]n1 (stereo not drawn) + Cc1nc(NC(=O)N2CCCC2C(N)=O)sc1-c1ccnc(C(C)(C)C(F)(F)F)c1
61.9

Check CC(C)NCC(C(=O)N1CCN(c2ncnc3c2C(C)CC3O)CC1)c1ccc(Cl)cc1 (stereo not drawn) + Cc1nc(NC(=O)N2CCCC2C(N)=O)sc1-c1ccnc(C(C)(C)C(F)(F)F)c1 too.
54.3

Same again, this time with CNC(=O)c1ccc(N2C(=S)N(c3ccc(C#N)c(C(F)(F)F)c3)C(=O)C2(C)C)cc1F + Cc1nc(NC(=O)N2CCCC2C(N)=O)sc1-c1ccnc(C(C)(C)C(F)(F)F)c1
66.4

----------
Exercise: for every item that follows, state its recorded viability, T/C.
system: MDA-MB-231 multicell spheroids, viability; assay: Anticancer human tumor MDA-MB-231 cell line growth inhibition [PI3K]; settings: second compound 0.01 µM; first compound 10 µM; active compounds read low;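 further: spheroids exposed to agents for seven days before reading; percent of vehicle control luminescence with DMSO treated spheroids as 100%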
State just the number; it will be interpreted in %.

Field request: viability, T/C | item: C#Cc1c(F)ccc2cc(O)cc(-c3ncc4c(N5CC6CCC(C5)N6)nc(OCC56CCCN5CC(F)C6)nc4c3F)c12 (stereo not drawn) + CC(Nc1ccc2c(c1)OCCn1cc(N3C(=O)OCC3C(F)F)nc1-2)C(N)=O
47.4

Same question, Cn1ncc(Cl)c1-c1cc(C(=O)NC(CN)Cc2cccc(F)c2)sc1Cl (stereo not drawn) + COc1c(OCCCN2CCOCC2)ccc2c3n(c(=NC(=O)c4cnc(N)nc4)nc12)CCN3 this time
25.4

Moving on to C[C@@H](NC(=O)c1ncnc(N)c1Cl)c1ncc(C(=O)Nc2cc(C(F)(F)F)c(Cl)cn2)s1 + CC(Nc1ccc2c(c1)OCCn1cc(N3C(=O)OCC3C(F)F)nc1-2)C(N)=O
49

----------
Answer each item with its documented viability, T/C.
test system: MDA-MB-231 multicell spheroids, viability; assay: Anticancer human tumor MDA-MB-231 cell line growth inhibition [PI3K]; settings: second compound 1 µM; first compound 10 µM; active compounds read low;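 further: spheroids exposed to agents for seven days before reading; percent of vehicle control luminescence with DMSO treated spheroids as 100%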
Express it in %; write the number only.

I am curious: what viability, T/C value has been reported for CCCS(=O)(=O)Nc1ccc(F)c(C(=O)c2c[nH]c3ncc(-c4ccc(Cl)cc4)cc23)c1F + COc1c(OCCCN2CCOCC2)ccc2c3n(c(=NC(=O)c4cnc(N)nc4)nc12)CCN3 ?
13.2

Please answer likewise for CC1(C)CCC(Nc2ncc(C(F)(F)F)c(-c3c[nH]c4c(P(C)(C)=O)c(C#N)ccc34)n2)CN1 (stereo unspecified) + CC(Nc1ncnc2nc[nH]c12)c1cc2cccc(Cl)c2c(=O)n1-c1ccccc1
4.82

Another compound: CC(Cn1ccc(-c2ccc(C#N)c(Cl)c2)n1)NC(=O)c1cc(C(C)O)[nH]n1 (stereo unspecified) + Cc1nc(NC(=O)N2CCCC2C(N)=O)sc1-c1ccnc(C(C)(C)C(F)(F)F)c1
59.8

Entry to check: CC1(C)CCC(CN2CCN(c3ccc(C(=O)NS(=O)(=O)c4ccc(NCC5CCOCC5)c([N+](=O)[O-])c4)c(Oc4cnc5[nH]ccc5c4)c3)CC2)=C(c2ccc(Cl)cc2)C1 + CC(Nc1ncnc2nc[nH]c12)c1cc2cccc(Cl)c2c(=O)n1-c1ccccc1
23.7

Okay, and Cn1nccc1Nc1nccc(-c2ccn(C(CO)c3ccc(Cl)c(F)c3)c(=O)c2)n1 (stereo unspecified) + CC(Nc1ncnc2nc[nH]c12)c1cc2cccc(Cl)c2c(=O)n1-c1ccccc1 ?
22.1

Another compound to check: C[C@@H](NC(=O)c1ncnc(N)c1Cl)c1ncc(C(=O)Nc2cc(C(F)(F)F)c(Cl)cn2)s1 + Cc1nc(NC(=O)N2CCCC2C(N)=O)sc1-c1ccnc(C(C)(C)C(F)(F)F)c1
29.2

Next compound up: CC1(C)CCC(Nc2ncc(C(F)(F)F)c(-c3c[nH]c4c(P(C)(C)=O)c(C#N)ccc34)n2)CN1 (stereo unspecified) + CC(Nc1ccc2c(c1)OCCn1cc(N3C(=O)OCC3C(F)F)nc1-2)C(N)=O
2.74

Also Cn1ncc(Cl)c1-c1cc(C(=O)NC(CN)Cc2cccc(F)c2)sc1Cl (stereo unspecified) + COc1c(OCCCN2CCOCC2)ccc2c3n(c(=NC(=O)c4cnc(N)nc4)nc12)CCN3 , if possible.
20.8

// repeat for C#Cc1c(F)ccc2cc(O)cc(-c3ncc4c(N5CC6CCC(C5)N6)nc(OCC56CCCN5CC(F)C6)nc4c3F)c12 (stereo unspecified) + CC(Nc1ccc2c(c1)OCCn1cc(N3C(=O)OCC3C(F)F)nc1-2)C(N)=O and report
28

Now try CC(C)NCC(C(=O)N1CCN(c2ncnc3c2C(C)CC3O)CC1)c1ccc(Cl)cc1 (stereo unspecified) + COc1c(OCCCN2CCOCC2)ccc2c3n(c(=NC(=O)c4cnc(N)nc4)nc12)CCN3 .
18.8

Record: CCCS(=O)(=O)Nc1ccc(F)c(C(=O)c2c[nH]c3ncc(-c4ccc(Cl)cc4)cc23)c1F + CC(Nc1ncnc2nc[nH]c12)c1cc2cccc(Cl)c2c(=O)n1-c1ccccc1
30.5
